System: SARS-CoV-2
protocol: Cytopathic effect (CPE) suppression effect confirmation test using HEK293T/ACE2-TMPRSS2 cells
Type: cell-based
settings: Severe acute respiratory syndrome coronavirus 2, HEK-293T, 72 h, read-out: EC50 (50% SARS-CoV-2 infected cell death inhibitory concentration), class, HEK293T/ACE2-TMPRSS2 cells, CPE suppression, CellTiter-Glo 2.0 after 3 days culture
measured_quantity: EC50

Examples with their reported EC50 follow.
{"columns": ["compound", "measured_quantity", "obs_value"],
 "data": [
  ["Cc1cncc(-n2c(=O)c(-c3ccc(F)c(Cl)c3)c(N3CC4(C3)CC(F)(F)C4)n(CC#N)c2=O)n1", "EC50", "< 100 nM"],
  ["N#CCn1c(N2CC3(CCOC3)C2)c(-c2cc(Cl)cc(C#N)c2)c(=O)n(-c2cncc(Cl)c2)c1=O", "EC50", "< 100 nM"],
  ["Cc1cncc(-n2c(=O)c(Cc3cc(F)c(F)c(F)c3)c(N3CCC(C)(F)C3)n(CC#N)c2=O)c1 (racemic)", "EC50", "< 100 nM"],
  ["N#CCn1c(N2CCC3(CNC(=O)C3)C2)c(-c2ccc(F)c(Cl)c2)c(=O)n(-c2cncc(Cl)c2)c1=O (racemic)", "EC50", "100 to 1000 nM"],
  ["Cc1[nH]ncc1-n1c(=O)c(Cc2cc(F)c(F)c(F)c2)c(N2Cc3ccccc3C2)n(CC#N)c1=O", "EC50", "< 100 nM"]
]}

Input: Write down the reported EC50 of Cc1cncc(-n2c(=O)c(-c3ccc(F)c(Cl)c3)c(N3CC4(C3)CC(F)(F)C4)n(CC#N)c2=O)c1 , test system: SARS-CoV-2.
Output: < 100 nM

Input: What do we get for Cc1cncc(-n2c(=O)c(-c3ccc(F)c(Cl)c3)c(N3CCC(F)(F)CC3)n(CC#N)c2=O)n1 ?
Output: < 100 nM

Input: What do we get for N#CCn1c(N2C[C@@H]3[C@@H](O)[C@@H]3C2)c(-c2ccc(F)c(Cl)c2)c(=O)n(-c2cncc(Cl)c2)c1=O ?
Output: < 100 nM

Input: What do we get for Cc1cncc(-n2c(=O)c(-c3ccc(F)c(Cl)c3)c(-c3cnc4ccccc4c3)n(CC#N)c2=O)c1 ?
Output: < 100 nM

Input: What do we get for N#CCn1c(N2Cc3ccccc3C2)c(-c2cccc(Cl)c2)c(=O)n(Cc2ccc[nH]c2=O)c1=O ?
Output: < 100 nM

Input: What do we get for CC(C)OC1CN(c2c(-c3ccc(F)c(Cl)c3)c(=O)n(-c3cncc(Cl)c3)c(=O)n2CC#N)C1 ?
Output: < 100 nM

Input: What do we get for N#CCn1c(N2CC(c3ccccc3)C2)c(-c2ccc(F)c(Cl)c2)c(=O)n(-c2cncc(Cl)c2)c1=O ?
Output: < 100 nM

Input: What do we get for COC1CCN(c2c(Cc3cc(F)c(F)c(F)c3)c(=O)n(-c3cncc(C)c3)c(=O)n2CC#N)CC1 ?
Output: < 100 nM

Numbers sourced from patent US20250092056A1.
